# TESTED_TARGET: T1, mouse DLL4 overexpressed on cells (mouse, UniProt Q9JI71 27-686)
# T1 construct: whole, on cells; also called CHO-mDLL4; CHO-mDII4
# T1 sequence (Q9JI71 27-686): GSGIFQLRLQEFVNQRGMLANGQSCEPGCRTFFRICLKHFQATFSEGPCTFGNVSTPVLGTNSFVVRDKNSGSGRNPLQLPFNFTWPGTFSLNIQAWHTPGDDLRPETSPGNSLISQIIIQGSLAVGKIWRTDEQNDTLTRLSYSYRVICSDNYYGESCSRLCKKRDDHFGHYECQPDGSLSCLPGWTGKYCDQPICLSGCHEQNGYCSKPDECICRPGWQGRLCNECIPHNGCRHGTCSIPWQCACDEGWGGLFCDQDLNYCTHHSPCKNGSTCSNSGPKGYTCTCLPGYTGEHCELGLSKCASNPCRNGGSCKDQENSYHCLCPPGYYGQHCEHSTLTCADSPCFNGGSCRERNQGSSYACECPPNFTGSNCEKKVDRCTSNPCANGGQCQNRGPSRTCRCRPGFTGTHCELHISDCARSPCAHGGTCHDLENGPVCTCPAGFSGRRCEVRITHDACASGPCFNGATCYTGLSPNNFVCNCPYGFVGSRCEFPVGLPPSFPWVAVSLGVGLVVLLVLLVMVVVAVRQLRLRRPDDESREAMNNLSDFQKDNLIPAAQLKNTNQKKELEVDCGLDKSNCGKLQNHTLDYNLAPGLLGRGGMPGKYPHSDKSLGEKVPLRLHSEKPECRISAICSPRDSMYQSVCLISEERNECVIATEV
# PROTOCOL: FMAT, labelled hNotch1-Fc on CHO-mDLL4, periplasmic extract
# Description: All calculations are based on the FL1_total signal which comprises the average of the fluorescence per well times the number of counts per well.
Cut-off 80% on % inh, inclusive. At or above means Y; below means N.

Prompt line: Please check the record DLLBII115A05 (VHH, also called 115A5; DLLBII115A5) VHH: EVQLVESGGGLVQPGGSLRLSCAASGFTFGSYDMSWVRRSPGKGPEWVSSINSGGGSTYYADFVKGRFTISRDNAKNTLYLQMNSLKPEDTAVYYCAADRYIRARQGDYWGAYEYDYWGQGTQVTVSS and state if its % inh is at or above 80%.
Response line: Y

Prompt line: Exam item: decide whether the reported % inh for DLLBII62C11 (VHH) VHH: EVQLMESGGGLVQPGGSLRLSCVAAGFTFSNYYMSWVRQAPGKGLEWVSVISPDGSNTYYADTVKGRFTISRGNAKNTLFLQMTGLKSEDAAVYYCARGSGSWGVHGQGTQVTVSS is at least 80%.
Response line: N

Prompt line: % inh >= 80% for DLLBII101H05 (VHH) VHH: EVQLVESGGGSAQAGGSLRLSCAASGRTSSTYAMGWFRQAPGKEHEFVSAIGRGTGATSYGDSVKGRFTISRDNAKNTVYLQMNSLQLEDTGDYYCVAGRGFYHDYSSYEYRGQGTQVTVSS ?
Response line: Y
